metric: melting point

Study these solved cases before continuing.
molecule: CCCCCCN(C)c1ccc(C=C2SC(=S)N(CC(=O)NC)C2=O)cc1
melting point: 228 to 230 °C
//
molecule: CCc1noc(-c2cc3c(-c4cccs4)nccc3[nH]c2=O)n1
melting point: 265 to 268 °C
//
molecule: CC(C)(C)C(=O)OC1CCC2C3(O)C=CC4=CC(=O)CCC4(CO)C3CCC12C (stereo not given)
melting point: 201 to 203 °C
//
molecule: CS(=O)(=O)c1ccc(Nc2nccc(N3CCCc4c(O)cccc43)n2)cc1
melting point: 242 to 245 °C
//
molecule: CCCCc1c(C)c2ccc(OCCCN3CCC(NC(=O)c4ccccc4)CC3)cc2oc1=O
melting point: 170 to 171 °C
//
molecule: CCOC(=O)N1CCC(=C2c3ccc(Cl)cc3CCn3ccnc32)CC1
melting point: 140 °C
//
molecule: CCCNC(=O)c1cc(-c2ccc(OC)cc2)nn(CC2CCCC2)c1=O
melting point: 110 °C
//
molecule: COc1c2c(cc3ccc(=O)oc13)CC(O)O2 (stereo not given)
melting point: 135 to 137 °C

# input molecule: CC(C)(C)CN(CC(O)C(Cc1ccccc1)NC(=O)C(CC(N)=O)NC(=O)NCc1ccccc1)C(=O)NC(C)(C)C (stereo not given) ; wanted: its melting point
177 to 178 °C

// query: CSC(C)=NOC(=O)N(C)SN(C(C)C)P1(=O)OCCCO1
134 to 135 °C

Quick one: NC(CCOS(=O)(=O)c1ccccc1)C(=O)Nc1ccccc1 (stereo not given)
89 °C

Now give it for O=C(c1ccc(OCCN2CCCC2)cc1)c1c(-c2ccc(Cl)cc2)sc2ccccc12 too.
97 to 98 °C

Input COc1nc(=O)n(-c2ccc(Cl)cc2)c(=O)[nH]1
238 to 241 °C

Try this molecule next: CC(C)(O)COc1c(-c2ccc(S(N)(=O)=O)cc2)cnn(-c2ccc(F)cc2)c1=O
155 to 158 °C

Also O=C=Nc1cc([N+](=O)[O-])c(Cl)cc1F ?
43 to 46 °C

Also, CCOC(=O)C(=CNc1ccnc(-c2ccccn2)n1)C(=O)OCC please.
162 to 164 °C

One more molecule: N#Cc1ccc(-c2ccc(-c3ccn([C@H](CC(=O)O)C(=O)N[C@H](CO)Cc4ccccc4)c3)cc2)cc1
189 to 192 °C

Please give the result for CCCCn1ccc(N2CCC(c3ccc(C(C)(C)O)cc3F)CC2)c(Cl)c1=O too.
150 °C

Field entry: CC1(c2ccccc2)SC(=S)N(Nc2ccccc2)C1=N (stereo not given)
118 to 119 °C

// next record C=Cc1c(F)c(N2CC3CN(C)CC3C2)c(F)c2c1c(=O)c(C(=O)O)cn2C1CC1 (stereo not given)
156 to 157 °C
